# Target desc: CYP3A4 (Homo sapiens (Human))
# Sequence (P08684 whole entry): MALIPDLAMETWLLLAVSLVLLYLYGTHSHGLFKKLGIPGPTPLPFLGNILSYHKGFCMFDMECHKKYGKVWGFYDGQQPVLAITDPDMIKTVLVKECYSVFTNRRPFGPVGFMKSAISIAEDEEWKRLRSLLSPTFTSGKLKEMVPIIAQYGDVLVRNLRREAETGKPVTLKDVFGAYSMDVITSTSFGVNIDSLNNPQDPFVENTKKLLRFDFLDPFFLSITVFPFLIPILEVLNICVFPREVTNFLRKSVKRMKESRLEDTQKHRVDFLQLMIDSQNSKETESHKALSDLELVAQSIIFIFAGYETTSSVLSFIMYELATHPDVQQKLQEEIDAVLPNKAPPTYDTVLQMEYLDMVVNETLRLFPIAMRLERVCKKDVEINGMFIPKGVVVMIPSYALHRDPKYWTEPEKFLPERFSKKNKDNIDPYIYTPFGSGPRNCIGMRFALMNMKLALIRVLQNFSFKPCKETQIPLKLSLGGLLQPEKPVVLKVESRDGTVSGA
# Assay notes: Inhibition of Liver Cytochrome P450 Enzymes (pooled human liver microsomes), CYP3A4
# Format: in vitro ADME
# Method: B. Inhibition of Liver Cytochrome P450 Enzymes Solutions of each test compound were separately prepared at concentrations of 20000, 6000, 2000, 600, 200, and 60 μM by serial dilution with DMSO:MeCN (50:50 v/v). […] Data was fitted to sigmoid dose-response curves and the inhibitory potency of each test compound was determined as its IC30 value.
Outcome measure: IC50 (µM)
Your answer is read as µM, so omit the unit and give the number.

Enquiry: Which value of IC50 has been reported for OC(Cn1cnnn1)(c1ccc(F)cc1F)C(F)(F)c1ccc(-c2ccc(F)nc2)cn1 (stereo not shown) [Compound 31] in the records?
Return: 33

---

# Tested on: Septoria tritici (ATCC 26517)
# Assay notes: Minimum Inhibitory Concentration (MIC) (Septoria tritici), CLSI-based microdilution
# Type: cell-based
# Condition summary: S. tritici ATCC 26517; 22° C. for seven days; 50% reduction in growth
Outcome measure: Septoria Rating (MIC)

OC(Cn1cnnn1)(c1ccc(F)cc1F)C(F)(F)c1ccc(-c2ccc(F)nc2)cn1 (stereo not shown) [Compound 31]
C (>1.5-4)
CC(F)(c1ccc(Br)cn1)C(O)(Cn1cnnn1)c1ccc(F)cc1F (stereo not shown) [Compound 85]
C (>1.5-4)

Values compiled from patent US9221791B2.
